# System: T1, human ORL-1 receptor (opioid receptor like 1) (human, UniProt P41146 1-370)
# T1 construct: whole, on cells; Assays were run on membranes of CHO cells transfected with human ORL-1; also called opiate receptor like 1; nociceptin receptor
# T1 sequence (P41146 whole entry): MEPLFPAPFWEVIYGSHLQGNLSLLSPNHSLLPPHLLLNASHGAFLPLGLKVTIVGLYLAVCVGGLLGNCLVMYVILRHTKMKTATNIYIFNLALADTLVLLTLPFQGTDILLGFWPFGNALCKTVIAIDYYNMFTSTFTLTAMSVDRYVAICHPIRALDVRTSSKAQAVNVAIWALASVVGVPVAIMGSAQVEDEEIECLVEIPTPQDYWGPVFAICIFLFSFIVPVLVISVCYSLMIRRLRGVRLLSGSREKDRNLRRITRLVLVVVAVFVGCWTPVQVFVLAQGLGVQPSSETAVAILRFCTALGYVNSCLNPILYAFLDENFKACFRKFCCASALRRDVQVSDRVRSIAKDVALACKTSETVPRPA
# Run Description: [3H]nociceptin displacement, membranes of CHO cells transfected with human ORL-1; Ki=IC50/(1+L/Kd)
Square brackets hold non-standard residues; d marks the D form. Trp(5-CN) = N#Cc1ccc2[nH]cc(C[C@H](N)C(=O)O)c2c1
Readout Label: pKi
Kindly note that pKi refers to -log10 of the concentration in mol/L and answer with the value alone.

Binder	pKi
Ac-R[Tyr(4-Me)][Tyr(4-Me)]RWR-NH2 (also called Ac-Arg-Tyr(4-Me)-Tyr(4-Me)-Arg-Trp-Arg-NH2) [VII-37-B]	8.20

Attention now shifts to the item below.
Task: Give the reported pKi for this binder. Ac-RYYR[Trp(5-CN)]R-NH2 (SMILES CC(=O)N[C@@H](CCCNC(=N)N)C(=O)N[C@@H](Cc1ccc(O)cc1)C(=O)N[C@@H](Cc1ccc(O)cc1)C(=O)N[C@@H](CCCNC(=N)N)C(=O)N[C@@H](Cc1c[nH]c2ccc(C#N)cc12)C(=O)N[C@@H](CCCNC(=N)N)C(N)=O, also called Ac-Arg-Tyr-Tyr-Arg-Trp(5-CN)-Arg-NH2) [VII-51-A]
Output: 9.52

Data provenance is patent US20030166571A1.
